Target: Adenosine receptor A2a (Rattus norvegicus, UniProt P30543)
Sequence (P30543 whole entry): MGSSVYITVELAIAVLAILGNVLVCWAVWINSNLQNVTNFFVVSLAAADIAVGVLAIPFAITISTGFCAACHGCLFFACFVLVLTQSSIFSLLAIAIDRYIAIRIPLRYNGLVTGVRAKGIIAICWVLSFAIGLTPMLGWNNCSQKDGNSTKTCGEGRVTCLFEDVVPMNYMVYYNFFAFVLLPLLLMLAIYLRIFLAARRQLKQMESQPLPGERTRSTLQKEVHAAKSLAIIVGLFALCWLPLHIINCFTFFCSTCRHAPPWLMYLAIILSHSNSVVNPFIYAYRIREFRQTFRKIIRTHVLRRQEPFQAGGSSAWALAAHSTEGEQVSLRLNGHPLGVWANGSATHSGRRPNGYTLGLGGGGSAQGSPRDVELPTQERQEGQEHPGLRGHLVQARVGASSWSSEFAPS
Quick list: Ki per entry.
Expressed in nM, but write only the number.

| COMPOUND | Ki, nM |
| --- | --- |
| CCNC(=O)C1OC(n2cnc3c(NC4CCCCC4)ncnc32)C(O)C1O (centres undefined) | 170 |
| Nc1nc(F)nc2c1ncn2[C@@H]1O[C@H](CO)[C@@H](O)[C@H]1O | 28 |
| CSC[C@H]1O[C@@H](n2cnc3c(NC4CCCC4)ncnc32)[C@H](O)[C@@H]1O | 1180 |

--- query ---
Query: Request body: readout Ki, system Adenosine receptor A2a (Rattus norvegicus, UniProt P30543), query O[C@@H]1[C@H](O)[C@@H](Cl)O[C@H]1n1cnc2c(NC3CCCC3)ncnc21 . Return the value.
Result: 1360
